// provenance: the supplement of paper PMC11451515

Could you please report measured cell viability for the items listed next?
System: NOMO1
assay: cell viability relative to DMSO control; higher = less cytotoxic
details: RPMI 5 mM glucose + 10% FBS; 48 h; 46.1 µM
Output spec: scalar in %, unitless text.

Given the compound CCCC(C)(COC(N)=O)COC(=O)NC(C)C (configuration not stated) , what is its reported cell viability?
129

Form field: reported cell viability of C[C@@H]1CCN(C(=O)CC#N)C[C@@H]1N(C)c1ncnc2[nH]ccc12
75.7

Which cell viability value is on record for C[C@@H]1CN(Cc2ccc(F)cc2)[C@@H](C)CN1C(=O)c1cc2c(C(=O)C(=O)N(C)C)cn(C)c2cc1Cl ?
118

So what's the measured cell viability for this one? CCC(C)N1\N=C/N(C1=O)C2=CC=C(C=C2)N3CCN(CC3)C4=CC=C(OC[C@H]5CO[C@@](C[N]6C=NC=N6)(O5)C7=CC=C(Cl)C=C7Cl)C=C4 (some centres not stated)
85.8

Query: cell viability; subject: CCOC(=O)N1c2ccc(C(F)(F)F)cc2[C@@H](N(Cc2cc(C(F)(F)F)cc(C(F)(F)F)c2)C(=O)OC)C[C@H]1CC
107

Param item = CC(NC(C)(C)C)C(=O)c1cccc(Cl)c1 (configuration not stated) ; retrieve measured cell viability.
113

I am curious: what cell viability value has been reported for NC[C@@H]1O[C@H](O[C@H]2[C@@H](O)[C@H](O[C@@H]3[C@@H](O)[C@H](N)C[C@H](N)[C@H]3O[C@H]3O[C@H](CN)[C@@H](O)[C@H](O)[C@H]3N)O[C@@H]2CO)[C@H](N)[C@@H](O)[C@@H]1O.O=S(=O)(O)O.O=S(=O)(O)O.O=S(=O)(O)O ?
94.9

# cell viability lookup, item CC(C)=CCC/C(C)=C/CC/C(C)=C/CSc1ccccc1C(=O)O
43.5

Return reported cell viability; argument: O=C([O-])C[C@H](O)C[C@H](O)/C=C/c1c(C2CC2)nc2ccccc2c1-c1ccc(F)cc1
23.7

GET /values?readout=cell viability&item= COc1cc([C@@H](CC(=O)O)c2ccc(C)c(CN3C[C@@H](C)Oc4ccccc4[S+]3(=O)[O-])c2)cc2nnn(C)c12
91.1

Fill in: cell viability of CCn1c(-c2nonc2N)nc2c(C#CC(C)(C)O)ncc(OC[C@H]3CCCNC3)c21 is ___
49.3

Given NC(=O)[C@H]1CCS[C@@H]2C[C@]3(CCCN3C(=O)Cc3ccc(NC(=O)COc4ccc(Cl)cc4Cl)cc3)C(=O)N12 , state its recorded cell viability.
38.9

Give its cell viability value. Item: O=C(CS(=O)Cc1ccco1)NC/C=C\COc1cc(CN2CCCCC2)ccn1 (configuration not stated)
92.8

Report cell viability for CC[S+](=O)([O-])Nc1ccc2c(c1)/C(=C(/Nc1ccc(CN3CCCCC3)cc1)c1ccccc1)C(=O)N2 please.
18.5

Request the reported cell viability associated with OC1=CC2=C(C=C1)C(=O)\C(=C(O2)\C3=CC(=C(O)C=C3)O)O
67.5

Bench note: what cell viability did N[C@H]2CN(CC12CC1)c3c(F)cc4c(c3Cl)[N@@](C=C(C4=O)C(=O)O)C5C[C@H]5F (some centres not stated) show?
97.1

So what's the measured cell viability for this one? O=C(CCCCCCC(=O)Nc1cccnc1)NO
12.3

So what's the measured cell viability for this one? CC(=O)OC[C@H]1O[C@@H]([S-])[C@H](OC(C)=O)[C@@H](OC(C)=O)[C@@H]1OC(C)=O.CCP(CC)CC.[Au+]
5

Suppose we examine the compound O=C1CCC[C@@H]2[C@H]3CCCN4CCC[C@@H](CN12)[C@@H]34 ; what cell viability value has been reported?
7.48

// cell viability lookup, key: O=C(CCCCCCC(=O)Nc1ccc([C@H]2O[C@@H](CSc3nc(-c4ccccc4)c(-c4ccccc4)o3)C[C@@H](c3ccc(CO)cc3)O2)cc1)NO
5.57

What value of measured cell viability is listed for CC(C)=CCC/C(C)=C/CC/C(C)=C/CC/C(C)=C/CC/C(C)=C/CC/C(C)=C/CC/C(C)=C/CC/C(C)=C/CC/C(C)=C/CO ?
88.3

Looking for the measured cell viability of COc1cc([C@@H]2c3cc4c(cc3[C@H](O)[C@H]3COC(=O)[C@@H]23)OCO4)cc(OC)c1OC , can you help?
16
